// reported abundance fitness per item
B1: COUP transcription factor 1, residues 83 to 159; numbered along this chain, P10589 (parent)
chain: HIECVVCGDKSSGKHYGQFTCEGCKSFFKRSVRRNLTYTCRANRNCPIDQHHRNQCQYCRLKKCLKVGMRREAVQRG

Variants of: B1
assay remarks: abundance fitness (aPCA) (normalised: wild type 0, dead -1); higher = more abundant; growth selection in yeast, the domain comes from the species named
condition details: Homo sapiens

[[record]]
mutation_label = "V74T"
measurement_label = "abundance fitness"
meas_value = -0.112

[[record]]
mutation_label = "R76T"
measurement_label = "abundance fitness"
meas_value = 0.025

[[record]]
mutation_label = "L61R"
measurement_label = "abundance fitness"
meas_value = -0.84

[[record]]
mutation_label = "G23K"
measurement_label = "abundance fitness"
meas_value = -0.044


Please look at the following variant next.
"N35P" has a reported abundance fitness of -0.402
